- target-desc: Pro-neuregulin-1, membrane-bound isoform (Homo sapiens)
- protocol: small molecules binding neuregulin-1 protein – biochemical, small-molecule microarray, fluorescence 635/667, psychiatric disease protein project, primary screen (AID 1075);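 note: score combines 667 nm spot fluorescence with signal to noise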
- test-context: NRG1 binding, 635 nm fluorescence, higher = more signal
quantity: composite z-score
One number for each entry.

| compound | composite z-score |
| --- | --- |
| CCCC=C(CCC)[C@@H](NS(=O)(=O)CC12CCC(CC1=O)C2(C)C)c1ccc(C(=O)OC)cc1 (some centres undefined) | 0.128 |
| CCOC(=O)C[C@H]1[C@H](OC(=O)c2ccccc2-c2ccccc2)[C@@H](NC(=O)c2ccc3ccccc3n2)c2cc(OCCCO)ccc2N1C(=O)Cc1ccc(OC)cc1 | 0.336 |
| NC(=O)NCC#Cc1ccc2c(c1)[C@]1(C(=O)N2)[C@H](c2ccccc2OCCO)N2[C@H](c3ccccc3)[C@H](c3ccccc3)OC(=O)[C@H]2[C@@H]1C(=O)O | 1.11 |

Moving on to the next compound.
Fill in: composite z-score of Oc1ccc2cc[n+](Cc3cc4c(cc3Br)OCO4)cc2c1 is ___
-0.614
